- measured-target: UniProtKB P14061
- test-method-notes: 17β-HSD1 test assay (recombinant protein from Sf9 insect cells, 3H-estrone/NADPH)
- Type: biochemical
- experimental-conditions: read-out: HSD 1 μM (% inhibition of HSD1)
Below, each of the compounds is paired with its reported inhibition at 1 µM value.
property-label: inhibition at 1 µM (%)

INSERT INTO assay_data (compound, property_label, numeric_result) VALUES
  ('Oc1cccc(-c2ccc3c(-c4ccncc4)c(O)ccc3c2)c1 [Compound 60]', 'inhibition at 1 µM', 85.9),
  ('Oc1cccc(-c2ccc3c(-c4ccoc4)c(O)ccc3c2)c1 [Compound 58]', 'inhibition at 1 µM', 89.1),
  ('CS(=O)(=O)Nc1cccc(-c2c(O)ccc3cc(-c4cccc(O)c4)ccc23)c1 [Compound 64]', 'inhibition at 1 µM', 90.8),
  ('Oc1cccc(-c2ccc3c(-c4cccnc4)c(O)ccc3c2)c1 [Compound 59]', 'inhibition at 1 µM', 92.3);

---

- measured-target: 17β-HSD2 (Homo sapiens (Human), UniProt P37059)
- Sequence (P37059 whole entry): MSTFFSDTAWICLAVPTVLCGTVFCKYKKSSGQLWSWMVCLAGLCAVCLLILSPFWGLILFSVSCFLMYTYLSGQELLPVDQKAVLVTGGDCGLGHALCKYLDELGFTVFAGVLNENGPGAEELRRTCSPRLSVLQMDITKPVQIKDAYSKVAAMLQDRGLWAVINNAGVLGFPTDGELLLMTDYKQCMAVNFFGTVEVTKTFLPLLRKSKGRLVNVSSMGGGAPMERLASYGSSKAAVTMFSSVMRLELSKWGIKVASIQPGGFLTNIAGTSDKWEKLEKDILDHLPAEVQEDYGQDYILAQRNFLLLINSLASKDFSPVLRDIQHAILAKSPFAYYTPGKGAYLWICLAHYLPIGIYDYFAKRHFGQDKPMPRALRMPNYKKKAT
- test-method-notes: 17β-HSD2 test assay (recombinant protein from Sf9 insect cells, 3H-estradiol/NAD+)
- Assay type: biochemical
- experimental-conditions: read-out: HSD2 1 μM (% inhibition); inhibitor 1 μM
property-label: inhibition at 1 µM (%)

INSERT INTO assay_data (molecule, property_label, result_qualifier, numeric_result) VALUES
  ('Oc1cccc(-c2ccc3c(-c4ccoc4)c(O)ccc3c2)c1 [Compound 58]', 'inhibition at 1 µM', '=', 92.3),
  ('O=C(Nc1cccc(O)c1)c1c(O)ccc2cc(-c3cccc(O)c3)ccc12 [Compound 43]', 'inhibition at 1 µM', '<', 10),
  ('Cc1nnc(NC(=O)c2c(O)ccc3cc(-c4cccc(O)c4)ccc23)s1 [Compound 48]', 'inhibition at 1 µM', '=', 24),
  ('O=C(Nc1ccccc1)c1c(O)ccc2cc(-c3cccc(O)c3)ccc12 [Compound 42]', 'inhibition at 1 µM', '=', 16.3),
  ('N#Cc1cc(-c2cccc(O)c2)cc2ccc(O)cc12 [Compound 53]', 'inhibition at 1 µM', '=', 67),
  ('CNC(=O)c1c(O)ccc2cc(-c3cccc(O)c3)ccc12 [Compound 41]', 'inhibition at 1 µM', '=', 21.6),
  ('O=C(O)c1cccc(-c2c(O)ccc3cc(-c4cccc(O)c4)ccc23)c1 [Compound 63]', 'inhibition at 1 µM', '=', 34.2),
  ('O=C(O)CCC(=O)Nc1ccc(-c2c(O)ccc3cc(-c4cccc(O)c4)ccc23)cc1 [Compound 67]', 'inhibition at 1 µM', '=', 68),
  ('CS(=O)(=O)Nc1cccc(-c2c(O)ccc3cc(-c4cccc(O)c4)ccc23)c1 [Compound 64]', 'inhibition at 1 µM', '=', 71.3);

---

- measured-target: 17β-HSD1 (Homo sapiens (Human), UniProt P14061)
- Sequence (P14061 whole entry): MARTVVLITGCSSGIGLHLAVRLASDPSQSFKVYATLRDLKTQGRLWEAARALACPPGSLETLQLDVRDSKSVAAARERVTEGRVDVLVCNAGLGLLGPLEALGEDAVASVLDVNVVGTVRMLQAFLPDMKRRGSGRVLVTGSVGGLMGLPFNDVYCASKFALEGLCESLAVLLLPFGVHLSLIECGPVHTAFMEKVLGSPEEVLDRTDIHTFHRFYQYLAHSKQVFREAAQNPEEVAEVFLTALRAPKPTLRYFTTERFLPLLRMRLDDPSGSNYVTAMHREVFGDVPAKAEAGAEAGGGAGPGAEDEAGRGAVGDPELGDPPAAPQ
- test-method-notes: 17β-HSD1 test assay (recombinant protein from Sf9 insect cells, 3H-estrone/NADPH)
- Assay type: biochemical
- experimental-conditions: read-out: HSD 1 μM (% inhibition of HSD1); inhibitor 1 μM
property-label: inhibition at 1 µM (%)

INSERT INTO measurements (molecule, property_label, result_qualifier, numeric_result) VALUES
  ('O=[N+]([O-])c1ccc(S(=O)(=O)Nc2cccc(-c3c(O)ccc4cc(-c5cccc(O)c5)ccc34)c2)cc1 [Compound 81]', 'inhibition at 1 µM', '=', 82.9),
  ('CNC(=O)CCc1cc(O)cc(-c2ccc3cc(O)ccc3c2)c1 [Compound 33]', 'inhibition at 1 µM', '<', 10),
  ('O=C(Nc1cccc(O)c1)c1c(O)ccc2cc(-c3cccc(O)c3)ccc12 [Compound 43]', 'inhibition at 1 µM', '=', 69.9),
  ('O=C(NCCc1ccc(S(=O)(=O)Nc2cccc(-c3c(O)ccc4cc(-c5cccc(O)c5)ccc34)c2)cc1)C(F)(F)F [Compound 88]', 'inhibition at 1 µM', '=', 82.4);
